- System: MDA-N
- test name: NCI tumour cell line growth inhibition, 48 h
property measured: TGI (µM)

molecule	unit info	value relation sign	reported
Clc1ccc2c(NC3CCC(N4CCCCC4)CC3)ccnc2c1 (stereo not given)	µM	=	33.2
COc1ccc(/C(=N/O)c2ccccc2C2=Nc3ccccc3C(NCc3ccccc3)O2)cc1C (stereo not given)	µM	>	100
CC(=O)NC1C(OCc2ccccc2)OC(CO)C(O)C1OC(C)C(=O)NC(C(=O)NC(CCC(=O)NCCCNc1ccc([N+](=O)[O-])c2[nH]c3ccccc3c(=O)c12)C(N)=O)C(C)C (stereo not given)	µM	>	100
Oc1ccc(-c2nc3cc(C(F)(F)F)ccc3s2)cc1	µM	=	32.7
CC(=O)OC1CC2(C)C(=CC1C1SCCS1)CCC1C2CCC2(C)C(OC(C)=O)CCC12 (stereo not given)	µM	>	100

----------
- System: SF-268 CNS
- test name: NCI tumour cell line growth inhibition, 48 h

compound	TGI
CC12CCC(C1)C(C)(C)C2OC(=O)c1ccccc1N (stereo not drawn)	31.6 µM
COc1cc2nc(-c3cccs3)nc(N3CCN(c4ccccc4)CC3)c2cc1OC	> 100 µM
O=[N+]([O-])c1c(O)c2nonc2c2nn(-c3ccccc3)nc12	> 100 µM

----------
- Tested on: HT29 colon
- test name: NCI tumour cell line growth inhibition, 48 h
property measured: TGI

molecule	property measured	reported
CCOC(=O)c1sc2nc(SC)nc3c2c1NCN3C	TGI	> 100 µM
Oc1c(C(Nc2ccccn2)c2ccccc2)ccc2cccnc12 (stereo not drawn)	TGI	> 86.5 µM
CCOC(=O)c1nc2ccccc2nc1Nc1ccc(C(=O)OC)s1	TGI	> 100 µM

----------
- System: CAKI-1 renal
- test name: NCI tumour cell line growth inhibition, 48 h
Entries and their TGI

molecule	TGI
Cc1cnc2c(c1)C(=O)N(c1ccc(Oc3ccccc3)cc1)S2(=O)=O	> 100 µM
CCOc1ccc2c(c1)C(/C(C(Cl)=C(Cl)Cl)=[N+](/[O-])OC(=O)c1ccccc1)=N2	> 100 µM
Cc1cc(-c2ccccc2)nc(Nc2cc3ccccc3[nH]2)n1	> 100 µM
CC(=O)OC1CC2(C)C(=CC1C1SCCS1)CCC1C2CCC2(C)C(OC(C)=O)CCC12 (stereo not given)	> 100 µM
COc1ccc(NC(=O)CSC(=O)c2ccccc2)c(SCCSSCCSc2cc(OC)ccc2NC(=O)CSC(=O)c2ccccc2)c1	> 100 µM
CC(=O)NC1C(OCc2ccccc2)OC(CO)C(O)C1OC(C)C(=O)NC(C(=O)NC(CCC(=O)NCCCNc1ccc([N+](=O)[O-])c2[nH]c3ccccc3c(=O)c12)C(N)=O)C(C)C (stereo not given)	> 100 µM
CC(C)OC1=C(CC2(C)OCCO2)C(=O)C12OCCO2	> 100 µM
COc1c(C(N)=O)cc(-c2ccc(Cl)cc2)cc1-c1ccc(S(N)(=O)=O)cc1	> 25 µM
COC(=O)/C1=C/C=C\C[C@@]2(C)CC(c3ccoc3)OC(=O)[C@@H]2CC[C@H]1C (stereo not given in full)	> 25 µM
NS(=O)(=O)c1ccc(-c2ccc([As](=O)(O)O)cc2)cc1	> 100 µM

----------
- Test system: UACC-257 melanoma
- test name: NCI tumour cell line growth inhibition, 48 h
# reported TGI; entries follow

molecule	unit info	value relation sign	TGI
COC(=O)CC[C@@H](C)[C@H]1CC[C@H]2[C@@H]3CC[C@@H]4C[C@H](O)CC[C@]4(C)[C@H]3CC[C@]12C	µM	=	29.5
Cc1cc(N(CCC#N)S(=O)(=O)c2ccccc2)ccc1C=Nc1ccc(C(=O)O)cc1	µM	=	30
C[C@@H]1CC[C@@H]2[C@@H]1[C@H](OC(=O)/C=C/C1CCCCC1)[C@]1(C3CCCCC3)C[C@@H](OC(=O)CO)[C@@]2(C)O1	µM	=	29.6
COc1cc2c(cc1OCC(=O)Nc1ccc(Cl)cc1C(=O)c1ccccc1Cl)N=CC1CCCN1C2=O (stereo not given)	µM	=	30.2
CCOC(=O)Cc1[nH]c(C(=O)c2ccccc2)cc1C(=O)c1ccccc1	µM	>	10
